Measured residual activity, listed per entry.
Biological target: SRSF protein kinase 3 (Homo sapiens)
Details: at 10 µM
Description: Millipore: Percentage of residual kinase activity of SRPK3 at 10uM relative to control. Control inhibitor: Phosphoric acid* at 0.3uM. Buffer: 8 mM MOPS pH 7.0, 0.2 mM EDTA
Just the number please, in %, no unit attached.

Examples from the recorded data:
# Smiles str, Measurement units, residual activity
measured = [
    ("CCCC(=O)Oc1ccc2[nH]c(C(=O)c3cc4ccccc4[nH]3)cc2c1", "%", 88),
    ("CN(C)S(=O)(=O)c1ccc2c(c1)/C(=C/c1cc3c([nH]1)CCCC3)C(=O)N2", "%", 77),
    ("COc1cc2ncnc(Nc3cccc(Cl)c3)c2cc1OC", "%", 22),
    ("CC(C)c1nn(-c2c(Cl)cccc2Cl)c2nc(Cc3ccc(OCCO)cc3)[nH]c(=O)c12", "%", 76),
    ("COc1ccc2c(c1)c(C1=C(c3c[nH]c4ccccc34)C(=O)NC1=O)cn2CCCN(C)C", "%", 52),
]

# query: residual activity | item "CCOC(=O)c1c(C)[nH]c(/C=C2\C(=O)Nc3ccccc32)c1C" | system: SRSF protein kinase 3 (Homo sapiens) 90

----------
Biological target: Cyclin-dependent kinase 2/cyclin E (Homo sapiens) (UniProt P24864+P24941+O96020)
Conditions: at 10 µM
Measured residual activity, listed per entry.
Just the number please, in %, no unit attached.

# Smiles str, Endpoint value
rows = [
    ("NCCNc1ncc(C(N)=O)c(Nc2cccc(C(F)(F)F)c2)n1", 47),
    ("O=C(CCCc1ccc(-c2ccccc2F)cc1)Nc1ccc(O)cc1", 92),
]

// query residual activity value for entry "O=C1NC(=O)C(c2c[nH]c3ccccc23)=C1c1c[nH]c2ccccc12" 30

----------
Target: Ephrin type-B receptor 2 (Homo sapiens) (UniProt P29323)
Sequence (P29323 whole entry): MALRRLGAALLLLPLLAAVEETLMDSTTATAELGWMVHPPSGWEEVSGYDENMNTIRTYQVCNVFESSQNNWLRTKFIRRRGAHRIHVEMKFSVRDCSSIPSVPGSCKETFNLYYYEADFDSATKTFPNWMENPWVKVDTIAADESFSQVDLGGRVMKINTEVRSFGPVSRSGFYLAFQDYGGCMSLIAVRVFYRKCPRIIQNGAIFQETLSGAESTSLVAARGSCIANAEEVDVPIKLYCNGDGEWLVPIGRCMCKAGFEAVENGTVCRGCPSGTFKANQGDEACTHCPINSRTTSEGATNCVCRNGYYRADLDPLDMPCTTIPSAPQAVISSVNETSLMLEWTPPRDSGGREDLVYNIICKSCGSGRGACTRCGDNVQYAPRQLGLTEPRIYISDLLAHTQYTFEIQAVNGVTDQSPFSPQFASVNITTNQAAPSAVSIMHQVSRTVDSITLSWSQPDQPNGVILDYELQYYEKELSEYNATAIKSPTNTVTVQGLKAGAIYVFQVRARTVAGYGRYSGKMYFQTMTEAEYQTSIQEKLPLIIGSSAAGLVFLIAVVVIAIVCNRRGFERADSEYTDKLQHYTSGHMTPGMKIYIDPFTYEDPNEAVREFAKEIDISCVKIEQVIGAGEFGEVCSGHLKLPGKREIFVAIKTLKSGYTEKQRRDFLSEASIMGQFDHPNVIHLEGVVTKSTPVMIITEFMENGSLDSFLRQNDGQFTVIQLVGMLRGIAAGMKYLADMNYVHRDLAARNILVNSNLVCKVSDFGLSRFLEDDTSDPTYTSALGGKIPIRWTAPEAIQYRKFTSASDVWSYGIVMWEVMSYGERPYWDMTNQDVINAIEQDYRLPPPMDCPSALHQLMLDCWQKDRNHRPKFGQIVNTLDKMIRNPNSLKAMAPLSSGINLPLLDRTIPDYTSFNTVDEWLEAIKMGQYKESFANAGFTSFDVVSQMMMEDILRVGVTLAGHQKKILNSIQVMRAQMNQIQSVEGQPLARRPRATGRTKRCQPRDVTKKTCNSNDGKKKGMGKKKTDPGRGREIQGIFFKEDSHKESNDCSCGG
Settings: at 1 µM
Measured residual activity, listed per entry.
Entry format: amount then unit.

# Smiles str, Endpoint value
rows = [
    ("O=c1cc(N2CCNCC2)oc2c(-c3ccccc3)cccc12", "103%"),
]

// query residual activity value for entry "CC(C)[C@H](CO)Nc1nc(Nc2cc(N)cc(Cl)c2)c2ncn(C(C)C)c2n1" 92%

// query residual activity value for entry "Nc1ncnc2c1c(-c1ccc(Oc3ccccc3)cc1)cn2C1CCCC1" 108%

// query residual activity value for entry "CCCC(=O)Oc1ccc2[nH]c(C(=O)c3cc4ccccc4[nH]3)cc2c1" 120%

// query residual activity value for entry "NC(=O)Nc1sc(-c2ccc(F)cc2)cc1C(N)=O" 93%

// query residual activity value for entry "COc1ccc2c(c1)c(C1=C(c3c[nH]c4ccccc34)C(=O)NC1=O)cn2CCCN(C)C" 109%

// query residual activity value for entry "O=C1Cc2c([nH]c3ccc([N+](=O)[O-])cc23)-c2ccccc2N1" 106%

----------
Molecular target: Serine/threonine-protein kinase BRSK1 (Homo sapiens)
Sequence (whole entry): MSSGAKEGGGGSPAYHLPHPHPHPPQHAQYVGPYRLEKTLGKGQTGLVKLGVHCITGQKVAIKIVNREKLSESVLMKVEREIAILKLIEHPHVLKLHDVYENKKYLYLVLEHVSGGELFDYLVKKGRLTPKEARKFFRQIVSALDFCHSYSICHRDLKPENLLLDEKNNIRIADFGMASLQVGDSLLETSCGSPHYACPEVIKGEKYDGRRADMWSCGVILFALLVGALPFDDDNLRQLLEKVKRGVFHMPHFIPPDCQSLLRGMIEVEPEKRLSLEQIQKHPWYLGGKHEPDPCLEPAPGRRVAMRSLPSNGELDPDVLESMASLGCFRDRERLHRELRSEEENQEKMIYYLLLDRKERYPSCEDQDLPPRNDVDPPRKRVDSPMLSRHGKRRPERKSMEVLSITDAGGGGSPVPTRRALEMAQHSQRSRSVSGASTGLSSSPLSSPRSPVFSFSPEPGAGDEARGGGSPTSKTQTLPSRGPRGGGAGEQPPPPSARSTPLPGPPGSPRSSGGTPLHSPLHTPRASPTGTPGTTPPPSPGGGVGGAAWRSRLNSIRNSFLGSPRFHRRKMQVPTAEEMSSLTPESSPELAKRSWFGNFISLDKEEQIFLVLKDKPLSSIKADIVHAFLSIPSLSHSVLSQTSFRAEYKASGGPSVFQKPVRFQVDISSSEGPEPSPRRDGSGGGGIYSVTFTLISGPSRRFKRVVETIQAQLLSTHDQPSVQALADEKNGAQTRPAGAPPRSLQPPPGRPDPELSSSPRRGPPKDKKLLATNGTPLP
Conditions: at 1 µM
Measured residual activity, listed per entry.
Just the number please, in %, no unit attached.

# Smiles str, Assayed target, Measurement units, Endpoint value
rows = [
    ("O=C1NC(=O)C(c2cn(CCCn3ccnc3)c3ccccc23)=C1Nc1ccccc1", "Serine/threonine-protein kinase BRSK1 (Homo sapiens)", "%", 59),
    ("O=C(O)/C=C/c1cc(Br)c(Br)c(Br)c1Br", "Serine/threonine-protein kinase BRSK1 (Homo sapiens)", "%", 103),
    ("NC(=O)c1ccc(-c2nc(-c3ccc4c(c3)OCCO4)c(-c3ccccn3)[nH]2)cc1", "Serine/threonine-protein kinase BRSK1 (Homo sapiens)", "%", 99),
    ("CC(C)(C)c1nc2c3ccc(F)cc3c3c(=O)[nH]ccc3c2[nH]1", "Serine/threonine-protein kinase BRSK1 (Homo sapiens)", "%", 32),
    ("Nc1ncnc2c1c(-c1ccc(Oc3ccccc3)cc1)cn2C1CCCC1", "Serine/threonine-protein kinase BRSK1 (Homo sapiens)", "%", 17),
    ("Nc1ncnc2[nH]nc(Nc3ccc(F)cc3)c12", "Serine/threonine-protein kinase BRSK1 (Homo sapiens)", "%", 74),
    ("O=C1NC(=O)C(c2c[nH]c3ccccc23)=C1c1c[nH]c2ccccc12", "Serine/threonine-protein kinase BRSK1 (Homo sapiens)", "%", 27),
    ("O=C1Nc2ccc(Cl)cc2/C1=C/c1cc(Cl)c(O)c(Cl)c1", "Serine/threonine-protein kinase BRSK1 (Homo sapiens)", "%", 40),
]

# query: residual activity | item "O=c1cc(N2CCNCC2)oc2c(-c3ccccc3)cccc12" | system: Serine/threonine-protein kinase BRSK1 (Homo sapiens) 70

# query: residual activity | item "COc1cc2ncnc(Nc3cccc(Cl)c3)c2cc1OC" | system: Serine/threonine-protein kinase BRSK1 (Homo sapiens) 14

# query: residual activity | item "COc1ccc(Cl)cc1NC(=O)Nc1cc(C)nc2ccccc12" | system: Serine/threonine-protein kinase BRSK1 (Homo sapiens) 60

# query: residual activity | item "Nc1nc(Nc2ccc(S(N)(=O)=O)cc2)nn1C(=O)c1c(F)cccc1F" | system: Serine/threonine-protein kinase BRSK1 (Homo sapiens) 55

# query: residual activity | item "O=C(c1cc2cc(O)ccc2[nH]1)c1cc2cc(O)ccc2[nH]1" | system: Serine/threonine-protein kinase BRSK1 (Homo sapiens) 5

----------
Measured residual activity, listed per entry.
Target: Misshapen-like kinase 1 (Homo sapiens) (UniProt Q8N4C8)
Sequence (Q8N4C8 whole entry, looked up): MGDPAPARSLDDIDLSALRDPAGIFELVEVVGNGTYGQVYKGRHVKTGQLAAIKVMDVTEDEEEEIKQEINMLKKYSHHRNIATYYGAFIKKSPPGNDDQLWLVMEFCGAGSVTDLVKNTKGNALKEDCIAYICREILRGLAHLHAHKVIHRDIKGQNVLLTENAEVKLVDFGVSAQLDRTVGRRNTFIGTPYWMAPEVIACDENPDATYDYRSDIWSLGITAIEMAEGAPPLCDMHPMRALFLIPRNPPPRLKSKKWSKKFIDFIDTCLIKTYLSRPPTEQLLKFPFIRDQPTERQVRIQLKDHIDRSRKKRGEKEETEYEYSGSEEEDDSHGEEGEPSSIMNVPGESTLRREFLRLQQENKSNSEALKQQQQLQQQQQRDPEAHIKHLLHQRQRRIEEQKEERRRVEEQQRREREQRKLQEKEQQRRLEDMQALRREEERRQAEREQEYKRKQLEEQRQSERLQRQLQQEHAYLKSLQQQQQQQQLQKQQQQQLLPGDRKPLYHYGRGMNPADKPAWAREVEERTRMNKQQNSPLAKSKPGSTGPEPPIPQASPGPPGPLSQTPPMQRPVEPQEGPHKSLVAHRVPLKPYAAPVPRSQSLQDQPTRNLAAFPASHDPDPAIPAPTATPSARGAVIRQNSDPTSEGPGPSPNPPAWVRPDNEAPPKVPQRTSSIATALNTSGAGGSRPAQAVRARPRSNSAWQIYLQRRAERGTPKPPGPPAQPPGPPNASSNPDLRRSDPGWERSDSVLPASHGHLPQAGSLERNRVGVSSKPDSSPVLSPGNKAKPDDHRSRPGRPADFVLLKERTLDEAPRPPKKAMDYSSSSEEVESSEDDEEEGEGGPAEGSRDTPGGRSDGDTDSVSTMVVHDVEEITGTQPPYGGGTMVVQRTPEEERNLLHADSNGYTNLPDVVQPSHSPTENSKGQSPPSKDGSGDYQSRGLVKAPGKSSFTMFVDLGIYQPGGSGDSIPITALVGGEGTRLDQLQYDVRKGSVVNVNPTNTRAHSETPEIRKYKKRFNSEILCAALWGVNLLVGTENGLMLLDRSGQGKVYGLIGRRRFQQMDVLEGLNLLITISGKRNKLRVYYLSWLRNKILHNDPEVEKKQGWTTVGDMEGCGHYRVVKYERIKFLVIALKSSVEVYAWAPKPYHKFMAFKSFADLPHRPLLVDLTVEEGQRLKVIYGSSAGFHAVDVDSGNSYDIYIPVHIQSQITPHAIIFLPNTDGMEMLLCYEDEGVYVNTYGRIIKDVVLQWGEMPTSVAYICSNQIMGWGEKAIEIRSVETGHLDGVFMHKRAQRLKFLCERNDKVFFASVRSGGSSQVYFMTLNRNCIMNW
Settings: at 1 µM
Just the number please, in %, no unit attached.

# Smiles str, residual activity (%)
data = [
    ("c1ccc(-c2cnc(Nc3ccc(OCCN4CCCC4)cc3)s2)cc1", 61),
    ("O=C1Nc2ccc(Cl)cc2/C1=C/c1cc(Cl)c(O)c(Cl)c1", 35),
]

// query residual activity value for entry "CCN(CC)CCNC(=O)c1c(C)[nH]c(/C=C2\C(=O)Nc3ccc(Cl)cc32)c1C" 9

// query residual activity value for entry "CC(C)(C)n1nc(Cc2cccc3ccccc23)c2c(N)ncnc21" 86

// query residual activity value for entry "Cc1cc(C)c(/C=C2\C(=O)Nc3ccccc32)[nH]1" 71

// query residual activity value for entry "CC(C)c1nn(-c2c(Cl)cccc2Cl)c2nc(Cc3ccc(OCCO)cc3)[nH]c(=O)c12" 97

// query residual activity value for entry "CCOC(=O)c1c(C)[nH]c(/C=C2\C(=O)Nc3ccccc32)c1C" 86

----------
Target: Calcium/calmodulin-dependent protein kinase type II subunit gamma (Homo sapiens)
Settings: at 10 µM
Measured residual activity, listed per entry.
Just the number please, in %, no unit attached.

# Smiles str, residual activity [%]
rows = [
    ("CN(C)S(=O)(=O)c1ccc2c(c1)/C(=C/c1cc3c([nH]1)CCCC3)C(=O)N2", 12),
    ("O=C(CCCc1ccc(-c2ccccc2F)cc1)Nc1ccc(O)cc1", 75),
    ("CC(C)[C@H](CO)Nc1nc(Nc2cc(N)cc(Cl)c2)c2ncn(C(C)C)c2n1", 20),
]

Now examine the next entry.
# query: residual activity | item "CCOC(=O)c1c(C)[nH]c(/C=C2\C(=O)Nc3ccccc32)c1C" | system: Calcium/calmodulin-dependent protein kinase type II subunit gamma (Homo sapiens) 48

----------
Target: Ribosomal protein S6 kinase alpha-1 (Homo sapiens) (UniProt Q15418)
Sequence (Q15418 whole entry): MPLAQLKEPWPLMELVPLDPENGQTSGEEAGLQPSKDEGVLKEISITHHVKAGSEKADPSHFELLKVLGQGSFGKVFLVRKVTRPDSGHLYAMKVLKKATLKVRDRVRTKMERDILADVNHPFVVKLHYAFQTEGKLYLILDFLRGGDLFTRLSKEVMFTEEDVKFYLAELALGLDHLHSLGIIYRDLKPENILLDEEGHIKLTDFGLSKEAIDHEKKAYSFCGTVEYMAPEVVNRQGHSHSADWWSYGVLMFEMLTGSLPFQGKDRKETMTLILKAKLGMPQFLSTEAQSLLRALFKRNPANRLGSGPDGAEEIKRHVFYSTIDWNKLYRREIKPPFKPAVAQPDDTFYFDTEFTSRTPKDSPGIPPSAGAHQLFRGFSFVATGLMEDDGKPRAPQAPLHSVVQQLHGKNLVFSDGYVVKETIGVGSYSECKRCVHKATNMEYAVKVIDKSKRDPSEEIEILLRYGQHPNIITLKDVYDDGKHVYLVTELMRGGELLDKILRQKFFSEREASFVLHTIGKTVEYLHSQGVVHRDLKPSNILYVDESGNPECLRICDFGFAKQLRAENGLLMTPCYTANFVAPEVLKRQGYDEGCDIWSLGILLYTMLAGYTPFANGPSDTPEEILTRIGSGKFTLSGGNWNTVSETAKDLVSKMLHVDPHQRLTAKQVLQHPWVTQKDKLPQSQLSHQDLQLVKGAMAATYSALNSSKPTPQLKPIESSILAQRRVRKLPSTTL
Settings: at 10 µM
Returns y if the recorded residual activity is greater than or equal to 80%, and n otherwise.

Threshold query (residual activity >= 80%) on "CC(C)[C@H](CO)Nc1nc(Nc2cc(N)cc(Cl)c2)c2ncn(C(C)C)c2n1" n

Threshold query (residual activity >= 80%) on "Nc1nc(Nc2ccc(S(N)(=O)=O)cc2)nn1C(=O)c1c(F)cccc1F" n

Threshold query (residual activity >= 80%) on "COc1cc2nccc(Oc3ccc(NC(=O)Nc4cc(C)on4)c(Cl)c3)c2cc1OC" n

Threshold query (residual activity >= 80%) on "O=C1C(Cl)=C(N2C(=O)CCC2=O)C(=O)c2ccccc21" y

Threshold query (residual activity >= 80%) on "O=S(=O)(c1cccc2cnccc12)N1CCCNCC1" n

Threshold query (residual activity >= 80%) on "Nc1n[nH]c2nc3ccccc3nc12" y

Threshold query (residual activity >= 80%) on "Nc1ncnc2c1cnn2-c1ccccc1" y
